B1: Protein piccolo, residues 1058 to 1114; numbered along this chain, Q9Y6V0 (parent)
chain: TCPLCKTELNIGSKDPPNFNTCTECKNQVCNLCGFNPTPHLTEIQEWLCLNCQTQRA

Variants of: B1
assay-protocol: abundance fitness (aPCA) (normalised: wild type 0, dead -1); higher = more abundant; growth selection in yeast, the domain comes from the species named
measurement-conditions: Homo sapiens
Assignment: determine reported abundance fitness for the given variants.
Answers are plain numbers.

Example entries and their recorded answers appear below.
| variant-designation | abundance fitness |
| --- | --- |
| T21M | 0.298 |
| T21G | -0.053 |
| D15T | -0.013 |
| N36D | -0.093 |
| W47I | -0.049 |
| L50G | 0.084 |
| P39D | -0.117 |
| G12R | -0.05 |
| T23L | -0.163 |
| C22Y | -0.899 |

Could you report abundance fitness for every entry in the following list?
1. E43G
2. N31S
3. C30V
4. T1K
5. C49W
6. F35A
7. L41T
8. K6I

Output:
1: 0.003; 2: 0.056; 3: -0.594; 4: -0.424; 5: -0.884; 6: 0.139; 7: 0.109; 8: -0.087

Hey, can you go through the list below and give me abundance fitness for every item?
1. K14S
2. L50I
3. C25V
4. F35E
5. L48V
6. C5A

Output:
[-0.126, -0.173, -0.636, 0.275, -0.165, -0.844]

Need abundance fitness for each of these variants.
1. T42Q
2. E8A
3. N10K
4. I44C
5. P3V

Output:
[0.062, -0.244, 0.2, 0.026, -0.294]

Could you report abundance fitness for every entry in the following list?
1. S13G
2. E24R

Output:
1. -0.525
2. -0.01

Provide the reported abundance fitness of each entry below, same order.
1. N18Q
2. I11S

Output:
[-0.07, -0.026]

# return abundance fitness for each item in the list
1. I11R
2. C22A
3. N51V
4. L4Q
5. C49V
6. C49G
7. V29P

Output:
1: -0.112; 2: -0.647; 3: -0.326; 4: 0.028; 5: -0.849; 6: -0.934; 7: -0.545

Count: 6. Required value per item: abundance fitness.
1. P17D
2. L41W
3. K6N
4. C49L
5. C2P
6. K26N

Output:
-0.122
-0.133
0.071
-1
-1.1
0.09
